- SYSTEM_TESTED: UniProtKB P14625
- Sequence (P14625 whole entry): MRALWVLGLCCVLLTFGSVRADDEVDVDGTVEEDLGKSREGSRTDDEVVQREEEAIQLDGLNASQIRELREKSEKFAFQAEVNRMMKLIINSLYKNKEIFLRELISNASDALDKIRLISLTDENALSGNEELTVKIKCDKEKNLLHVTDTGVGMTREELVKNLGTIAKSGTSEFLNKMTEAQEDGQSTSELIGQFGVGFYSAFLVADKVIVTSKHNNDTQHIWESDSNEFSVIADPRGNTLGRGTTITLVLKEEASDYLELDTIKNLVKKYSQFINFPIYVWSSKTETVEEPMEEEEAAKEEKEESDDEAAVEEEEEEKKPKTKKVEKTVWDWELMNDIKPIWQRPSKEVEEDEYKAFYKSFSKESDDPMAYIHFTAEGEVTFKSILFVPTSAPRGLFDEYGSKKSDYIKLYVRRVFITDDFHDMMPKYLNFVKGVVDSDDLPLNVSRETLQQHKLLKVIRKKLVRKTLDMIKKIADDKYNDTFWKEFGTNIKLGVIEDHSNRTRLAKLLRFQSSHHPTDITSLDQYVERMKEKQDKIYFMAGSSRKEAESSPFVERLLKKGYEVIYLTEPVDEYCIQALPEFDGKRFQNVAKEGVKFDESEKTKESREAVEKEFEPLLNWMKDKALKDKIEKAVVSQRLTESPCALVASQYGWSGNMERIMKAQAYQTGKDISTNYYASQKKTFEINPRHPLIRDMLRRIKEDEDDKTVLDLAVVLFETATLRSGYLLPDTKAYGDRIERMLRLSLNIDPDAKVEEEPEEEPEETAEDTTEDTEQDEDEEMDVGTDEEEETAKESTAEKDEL
- PROTOCOL_NOTES: Inhibition of recombinant Grp94 (unknown origin) assessed as tracer bound at 25 uM after 24 hrs by fluorescence polarization assay relative to control
- Set-up: scale not given: the % may be the effect or the level left
Form field: Activity (one value per entry).

{"columns": ["SMILES_REPRESENTATION", "SYSTEM_TESTED", "Activity"],
 "data": [
  ["COC(=O)c1c(O)cc(O)c(Cl)c1CCC(=O)Nc1cncnc1", "UniProtKB P14625", "11.6%"],
  ["COC(=O)c1c(O)cc(O)c(Cl)c1CCC(=O)Nc1cccc(Br)c1", "UniProtKB P14625", "9.3%"],
  ["COC(=O)c1c(O)cc(O)c(Cl)c1CCC(=O)NCCc1ccccc1", "UniProtKB P14625", "33%"],
  ["COC(=O)c1c(O)cc(O)c(Cl)c1CCC(=O)Nc1ncc(Cl)s1", "UniProtKB P14625", "22.4%"],
  ["COC(=O)c1c(O)cc(O)c(Cl)c1CCC(=O)Nc1ccccn1", "UniProtKB P14625", "1%"],
  ["COC(=O)c1c(O)cc(O)c(Cl)c1CCC(=O)Nc1cnccn1", "UniProtKB P14625", "16.6%"],
  ["COC(=O)c1c(O)cc(O)c(Cl)c1CCC(=O)N1CCc2ccccc21", "UniProtKB P14625", "23%"],
  ["COC(=O)c1c(O)cc(O)c(Cl)c1CCC(=O)Nc1ccccc1Br", "UniProtKB P14625", "6.1%"],
  ["COC(=O)c1c(O)cc(O)c(Cl)c1CCC(=O)Nc1ccc(C(C)C)cc1", "UniProtKB P14625", "59%"],
  ["COC(=O)c1c(O)cc(O)c(Cl)c1CCC(=O)Nc1ccc(-c2ccccc2)cc1", "UniProtKB P14625", "85%"],
  ["COC(=O)c1c(O)cc(O)c(Cl)c1CCC(=O)NNc1ccccc1", "UniProtKB P14625", "26.3%"],
  ["COC(=O)c1c(O)cc(O)c(Cl)c1CCC(=O)Nc1ccc(C)cc1", "UniProtKB P14625", "18.7%"],
  ["COC(=O)c1c(O)cc(O)c(Cl)c1CCC(=O)Nc1nncs1", "UniProtKB P14625", "8.7%"],
  ["COC(=O)c1c(O)cc(O)c(Cl)c1CCC(=O)Nc1cccc(NC(C)=O)c1", "UniProtKB P14625", "8.3%"],
  ["COC(=O)c1c(O)cc(O)c(Cl)c1CCC(=O)Nc1ccc(Br)cn1", "UniProtKB P14625", "0.1%"],
  ["COC(=O)c1c(O)cc(O)c(Cl)c1CCC(=O)Nc1ncccc1Cl", "UniProtKB P14625", "9.8%"],
  ["COC(=O)c1c(O)cc(O)c(Cl)c1CCC(=O)Nc1ccc(C#N)cc1", "UniProtKB P14625", "5.4%"],
  ["COC(=O)c1c(O)cc(O)c(Cl)c1CCC(=O)Nc1ccccc1O", "UniProtKB P14625", "18%"],
  ["COC(=O)c1c(O)cc(O)c(Cl)c1CCC(=O)Nc1ccc(I)cc1", "UniProtKB P14625", "29.8%"],
  ["COC(=O)c1c(O)cc(O)c(Cl)c1CCC(=O)Nc1cccnc1", "UniProtKB P14625", "14.9%"],
  ["COC(=O)c1c(O)cc(O)c(Cl)c1CCC(=O)Nc1ccccc1F", "UniProtKB P14625", "16.3%"],
  ["COC(=O)c1c(O)cc(O)c(Cl)c1CCC(=O)NC1CCCCC1", "UniProtKB P14625", "26.1%"]
]}
